ASSAY_TARGET: cholesterol biosynthesis (crude enzyme extracted from rat liver)
TEST: Inhibition of cholesterol biosynthesis by crude enzyme extracted from rat liver (radioactive acetic acid incorporation, digitonin precipitation)
Type: biochemical
TEST_CONDITIONS: 37° C., 60 minutes, compound added at beginning of reaction
Each entry below lists one item and its recorded I50 (concentration giving approximately 50% inhibition of cholesterol biosynthesis) value.
PROPERTY_LABEL: I50 (concentration giving approximately 50% inhibition of cholesterol biosynthesis) (µg/mL)

MOLECULE: CC(Oc1ccccc1)C1CC(O)CC(=O)O1 (centres unmarked)
MEASURE_UNIT: µg/mL
MEASURED: 42.3
//
MOLECULE: CC(C)(Oc1ccc(Cl)cc1)C1CC(O)CC(=O)O1 (centres unmarked)
MEASURE_UNIT: µg/mL
MEASURED: 21.3
//
MOLECULE: O=C1CC(O)CC(CCc2cccc3ccccc23)O1 (centres unmarked)
MEASURE_UNIT: µg/mL
MEASURED: 6.4
//
MOLECULE: Cc1ccc2ccccc2c1CCC1CC(O)CC(=O)O1 (centres unmarked)
MEASURE_UNIT: µg/mL
MEASURED: 0.75
